Reported pKi, D(2) dopamine receptor (Rattus norvegicus, UniProt P61169).
pKi: −log10 of the molar value.
quantity.name: pKi

Examples with answers:
>>> result_value("CCCN(CCN1CCN(Cc2c[nH]c3ccc(Br)cc23)CC1)C1CCc2nc(N)sc2C1 (racemic)")
6.42
>>> result_value("CCCN(CCN1CCN(c2c(Cl)ccc3[nH]ccc23)CC1)[C@H]1CCc2nc(N)sc2C1")
7.13
>>> result_value("CCCN(CCN1CCN(c2ccc3cc[nH]c3c2Cl)CC1)[C@H]1CCc2nc(N)sc2C1.O=C(O)C(F)(F)F")
7.79

P. CCCN(CCN1CCN(c2cc(F)c3[nH]ccc3c2)CC1)[C@H]1CCc2nc(N)sc2C1
Q. CCCN(CCN1CCN(Cc2c[nH]c3ccc(F)cc23)CC1)C1CCc2nc(N)sc2C1 (racemic)
-- ask Short answer wanted: higher pKi, P or Q ? // return label of chosen record
-- reply P
